- Target Under Test: COVID-19 WT Mpro (Severe acute respiratory syndrome coronavirus 2, UniProt P0DTD1)
- Construct: The C-His6-tagged COVID-19 WT Mpro (NC_045512); His6 (C)
- Protocol: biochemical
- Assay Conditions: WT Mpro 25 nM, substrate 25 μM, 30 min pre-incubation; several values in a cell = repeat determinations
Field: pIC50. Provide a value for each of the compounds that follow.
One number for each entry, as −log10 of the molar value.

For every listed record, write down its pIC50.
1. CC1(C)[C@@H]2[C@@H](C(=O)N[C@@H](C[C@@H]3CCNC3=O)C(=O)c3nc4ccccc4s3)N(C(=O)[C@@H]3CCN3C(=O)C(F)(F)F)C[C@@H]21
2. CC(C)(C)[C@H](NC(=O)c1ccc2cncn2c1)C(=O)N1C[C@H]2[C@@H]([C@H]1C(=O)N[C@H](C#N)C[C@@H]1CCNC1=O)C2(C)C

1. 4.96
2. 6.39

###

- System: human coronavirus (HCoV) 229E
- Protocol: microbe, parasite or virus in culture
- Type: cell-based, human coronavirus 229E
- Assay Conditions: unidentified human coronavirus, 72 h, MRCS cells, HCoV 229E, 3 days, CellTiter Glo; read-out: 229E CPE EC50
pEC50: −log10 of the molar value.
Assign pEC50 to each entry below.

Look up pEC50 for the entries below, preserving their order.
1. CC(C)(C)[C@H](NC(=O)C1COC1)C(=O)N1C[C@H]2[C@@H]([C@H]1C(=O)N[C@H](C#N)C[C@@H]1CCNC1=O)C2(C)C
2. CC(C)(C)[C@H](NC(=O)C1(CS(=O)(=O)C(C)(C)C)CCCCC1)C(=O)N1C[C@H]2[C@@H]([C@H]1C(=O)N[C@H](C#N)C[C@@H]1CCNC1=O)C2(C)C
3. CN(C)[C@@H]1C[C@@H](C(=O)N[C@H](C#N)C[C@@H]2CCNC2=O)N(C(=O)[C@@H](NC(=O)C(F)(F)F)C(C)(C)C)C1

< 4.52
< 4.52
< 4.52
